- TARGET: D816V Kit (Homo sapiens, UniProt P10721, D816V)
- Sequence (P10721 26-976 D816V): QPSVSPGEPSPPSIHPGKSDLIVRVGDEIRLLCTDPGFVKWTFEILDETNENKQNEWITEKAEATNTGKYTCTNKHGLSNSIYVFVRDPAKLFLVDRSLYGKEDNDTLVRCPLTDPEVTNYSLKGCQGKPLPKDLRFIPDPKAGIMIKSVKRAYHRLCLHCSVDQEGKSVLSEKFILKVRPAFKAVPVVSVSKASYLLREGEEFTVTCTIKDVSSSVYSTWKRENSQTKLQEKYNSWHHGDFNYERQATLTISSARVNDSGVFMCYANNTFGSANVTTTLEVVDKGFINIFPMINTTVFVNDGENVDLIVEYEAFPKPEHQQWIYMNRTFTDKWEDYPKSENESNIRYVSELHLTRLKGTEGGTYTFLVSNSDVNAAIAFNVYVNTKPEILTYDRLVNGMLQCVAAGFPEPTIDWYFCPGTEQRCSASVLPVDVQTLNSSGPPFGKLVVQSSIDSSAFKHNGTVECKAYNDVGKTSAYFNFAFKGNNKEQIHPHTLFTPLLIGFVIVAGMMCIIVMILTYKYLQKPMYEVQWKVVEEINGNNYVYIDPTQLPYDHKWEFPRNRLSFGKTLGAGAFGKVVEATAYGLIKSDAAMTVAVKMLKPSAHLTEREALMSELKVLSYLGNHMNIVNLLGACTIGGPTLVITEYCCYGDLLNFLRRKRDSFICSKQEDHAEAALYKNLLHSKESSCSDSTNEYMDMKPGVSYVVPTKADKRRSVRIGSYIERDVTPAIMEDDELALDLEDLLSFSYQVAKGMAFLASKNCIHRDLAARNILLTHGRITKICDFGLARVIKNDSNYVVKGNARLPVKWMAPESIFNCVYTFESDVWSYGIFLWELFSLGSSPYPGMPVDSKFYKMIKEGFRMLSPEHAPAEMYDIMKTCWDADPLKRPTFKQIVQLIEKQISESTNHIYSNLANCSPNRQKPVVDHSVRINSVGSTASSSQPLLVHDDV
- ASSAY_NAME: Kit D816V assay at Km (Caliper electrophoretic mobility shift)
- COND: 15 uM ATP, 25 C, 90 minutes
Property: IC50; scope: individual molecules

{"INPUT_SMILES": "c1ccc(Nc2cnc(N3CCN(c4ncnc(Nc5ccc(N6CCOCC6)cc5)n4)CC3)nc2)cc1", "TARGET": "D816V Kit (Homo sapiens, UniProt P10721, D816V)", "IC50": "1.01 to 10 nM"}
{"INPUT_SMILES": "FC1(F)CN(Cc2cccc(Nc3ncnc(N4CCN(c5ncc(Cc6ccccc6)cn5)CC4)n3)c2)C1", "TARGET": "D816V Kit (Homo sapiens, UniProt P10721, D816V)", "IC50": "1.01 to 10 nM"}
{"INPUT_SMILES": "CC(C)(O)Cn1cc(Nc2ncnc(N3CCN(c4ncc(Sc5ccc(F)cc5)cn4)CC3)n2)cn1", "TARGET": "D816V Kit (Homo sapiens, UniProt P10721, D816V)", "IC50": "< 1 nM"}
{"INPUT_SMILES": "c1ccc(Cc2cnc(N3CCN(c4ncnc(Nc5cnn(C[C@@H]6CNCCO6)c5)n4)CC3)nc2)cc1", "TARGET": "D816V Kit (Homo sapiens, UniProt P10721, D816V)", "IC50": "< 1 nM"}
{"INPUT_SMILES": "CS(=O)(=O)c1ccc(Nc2ncnc(N3CCN(c4ncc(Cc5ccccc5)cn4)CC3)n2)cc1", "TARGET": "D816V Kit (Homo sapiens, UniProt P10721, D816V)", "IC50": "1.01 to 10 nM"}
{"INPUT_SMILES": "O[C@@H]1CCN(c2ccc(Nc3ncnc(N4CCN(c5ncc(Cc6ccccc6)cn5)CC4)n3)cc2)C[C@@H]1O", "TARGET": "D816V Kit (Homo sapiens, UniProt P10721, D816V)", "IC50": "< 1 nM"}
{"INPUT_SMILES": "[2H]C([2H])(c1ccccc1)c1cnc(N2CCN(c3ncnc(Nc4cnn(C[C@@H]5CNCCO5)c4)n3)CC2)nc1", "TARGET": "D816V Kit (Homo sapiens, UniProt P10721, D816V)", "IC50": "1.01 to 10 nM"}
{"INPUT_SMILES": "NS(=O)(=O)c1cccc(Nc2ncnc(N3CCN(c4ncc(Cc5ccccc5)cn4)CC3)n2)c1", "TARGET": "D816V Kit (Homo sapiens, UniProt P10721, D816V)", "IC50": "< 1 nM"}

* * *

- TARGET: D816V Kit (Homo sapiens, UniProt P10721, D816V)
- Construct: purchased Carna Bioscience 08-156
- ASSAY_NAME: Kit D816V assay at Km (Caliper electrophoretic mobility shift)
- Type: biochemical
- COND: 15 uM ATP, 25 C, 90 minutes
pIC50: −log10 of the molar value.

{"MOLECULE": "c1ccc(Cc2cnc(N3CCN(c4ncnc(Nc5cnc6c(c5)CNCC6)n4)CC3)nc2)cc1 [Compound 43]", "pIC50": "> 9.00"}
{"MOLECULE": "CC(C)N1CCc2ccc(Nc3ncnc(N4CCN(c5ncc(Cc6ccccc6)cn5)CC4)n3)cc2C1 [Compound 148]", "pIC50": "> 9.00"}
{"MOLECULE": "C[C@](O)(c1ccccc1)c1cnc(N2CCN(c3ncnc(Nc4ccc(N5CCOCC5)cc4)n3)CC2)nc1 [Compound 235]", "pIC50": "> 9.00"}
{"MOLECULE": "c1ccc(Cc2cnc(N3CCN(c4ncnc(Nc5ccc(O[C@@H]6CCCNC6)cc5)n4)CC3)nc2)cc1 [Compound 161]", "pIC50": "> 9.00"}
{"MOLECULE": "CC(=O)NCc1cccc(Nc2ncnc(N3CCN(c4ncc(Cc5ccccc5)cn4)CC3)n2)c1 [Compound 74]", "pIC50": "> 9.00"}
{"MOLECULE": "Fc1ccc(Cc2cnc(N3CCN(c4ncnc(Nc5ccc6c(c5)CNCC6)n4)CC3)nc2)c(F)c1 [Compound 138]", "pIC50": "> 9.00"}
{"MOLECULE": "OC[C@H]1CCCN1c1ccc(Nc2ncnc(N3CCN(c4ncc(Cc5ccccc5)cn4)CC3)n2)cc1 [Compound 167]", "pIC50": "8.00 to 9.00"}
{"MOLECULE": "Cc1nn(C[C@@H]2CNCCO2)cc1Nc1ncnc(N2CCN(c3ncc(Cc4ccccc4)cn3)CC2)n1 [Compound 184]", "pIC50": "8.00 to 9.00"}
{"MOLECULE": "NCc1cccc(Nc2ncnc(N3CCN(c4ncc(Cc5ccccc5)cn4)CC3)n2)c1 [Compound 14]", "pIC50": "> 9.00"}
{"MOLECULE": "Fc1cc(N2CCNCC2)ccc1Nc1ncnc(N2CCN(c3ncc(Cc4ccccc4)cn3)CC2)n1 [Compound 175]", "pIC50": "8.00 to 9.00"}
{"MOLECULE": "Fc1ccc(Cc2cnc(N3CCN(c4ncnc(Nc5cnn(C[C@@H]6CNCCO6)c5)n4)CC3)nc2)cc1 [Compound 196]", "pIC50": "> 9.00"}
{"MOLECULE": "c1ccc(Cc2cnc(N3CCN(c4ncnc(Nc5cnn([C@H]6CCNC6)c5)n4)CC3)nc2)cc1 [Compound 52]", "pIC50": "> 9.00"}
{"MOLECULE": "c1ccc(Oc2cnc(N3CCN(c4ncnc(Nc5ccc6c(c5)CNCC6)n4)CC3)nc2)cc1 [Compound 46]", "pIC50": "> 9.00"}
{"MOLECULE": "Cc1cc(N2CCNCC2)ccc1Nc1ncnc(N2CCN(c3ncc(Cc4ccccc4)c(N)n3)CC2)n1 [Compound 228]", "pIC50": "8.00 to 9.00"}
{"MOLECULE": "OC[C@H](O)c1ccc(Nc2ncnc(N3CCN(c4ncc(Cc5ccc(F)cc5)cn4)CC3)n2)cc1 [Compound 93]", "pIC50": "> 9.00"}
{"MOLECULE": "CC(O)c1cccc(Nc2ncnc(N3CCN(c4ncc(Cc5ccccc5)cn4)CC3)n2)c1 (centres unmarked) [Compound 26]", "pIC50": "8.00 to 9.00"}
{"MOLECULE": "c1ccc(Cc2cnc(N3CCN(c4ncnc(Nc5ccc(OC6CNC6)cc5)n4)CC3)nc2)cc1 [Compound 77]", "pIC50": "8.00 to 9.00"}
{"MOLECULE": "NC(=O)c1ccc(Nc2ncnc(N3CCN(c4ncc(Cc5ccccc5)cn4)CC3)n2)cc1 [Compound 24]", "pIC50": "8.00 to 9.00"}
{"MOLECULE": "Cc1nn(C[C@H](C)O)cc1Nc1ncnc(N2CCN(c3ncc(Sc4ccccc4F)cn3)CC2)n1 [Compound 153]", "pIC50": "> 9.00"}
{"MOLECULE": "C[C@H](O)Cn1cc(Nc2ncnc(N3CCN(c4ncc(Cc5ccccc5)cn4)CC3)n2)cn1 [Compound 33]", "pIC50": "8.00 to 9.00"}
{"MOLECULE": "c1ccc(Cc2cnc(N3CCN(c4ncnc(Nc5ccc(O[C@H]6CCCNC6)cc5)n4)CC3)nc2)cc1 [Compound 162]", "pIC50": "> 9.00"}
{"MOLECULE": "OC1(c2ccc(Nc3ncnc(N4CCN(c5ncc(Cc6ccccc6)cn5)CC4)n3)cc2)CCCNC1 (centres unmarked) [Compound 236]", "pIC50": "> 9.00"}
{"MOLECULE": "CN(C)C1CCN(Cc2cccc(Nc3ncnc(N4CCN(c5ncc(Cc6ccccc6)cn5)CC4)n3)c2)C1 (centres unmarked) [Compound 259]", "pIC50": "> 9.00"}

# credit: patent US9334263B2
